System: CAKI-1 renal
Assay Remarks: NCI tumour cell line growth inhibition, 48 h
Consider the following compounds; for each one, report its TGI.

Incoming: # input compound: COC(=O)CC(=O)Nc1sccc1S(=O)(=O)c1ccccc1 ; wanted: its TGI
Outgoing: > 100 µM

Incoming: Query: TGI; subject: C[C@@H](NC1CCC[C@H]1O)c1ccccc1 (stereo partly specified)
Outgoing: > 100 µM

Incoming: Would you kindly share the measured TGI for CC(C)c1ccc(Nc2nccc(-c3cnn4ncccc34)n2)cc1 ?
Outgoing: > 15.4 µM

Incoming: Could you tell me which TGI is on file for OCC1OC(n2cnc3c(=S)nc[nH]c32)C(O)C1O (stereo unspecified) ?
Outgoing: > 2500 µM

Incoming: // query TGI value for entry N.N.NCCCCCCN.O=C([O-])CC(=O)[O-].O=C([O-])CC(=O)[O-].[Pt+4].[Pt+4]
Outgoing: > 100 µM

Incoming: Look up TGI for this compound: CC(C)/C(Cl)=N\OC(=O)Nc1ccc(F)cc1F
Outgoing: 34.3 µM

Incoming: Which TGI is reported for this compound? CCOc1ccccc1/C=N\N=C(\N)N/N=C/c1ccccc1OCC
Outgoing: > 100 µM

Incoming: Look at this compound and give its reported TGI. c1ccc2c(c1)nc1n2C2CCC(C2)N1 (stereo unspecified)
Outgoing: > 10 µM

Incoming: Form field: reported TGI of CC(C)C12C=CC(C)(CC1)n1c(=O)c3cc4ccccc4cc3c(=O)n12 (stereo unspecified)
Outgoing: > 100 µM

Incoming: Fill in the blank: the reported TGI of COc1ccc(-c2nn(-c3cccc(Cl)c3)cc2-c2cc(-c3ccccc3)nc(N)n2)cc1 is ____.
Outgoing: 10.7 µM

Incoming: Given c1ccc(CSc2nnc3c4ccccc4c4ccccc4c3n2)cc1 , state its recorded TGI.
Outgoing: > 100 µM

###

Give measured TGI for each item. Keep answers brief.
System: M19-MEL melanoma
Assay Remarks: NCI tumour cell line growth inhibition, 48 h

Incoming: Data request, read-out TGI, for C/C=C/C=C/CCCCCCCCCCCCCC1(OC)C=CC(CC(=O)OC)OO1 (configuration not stated)
Outgoing: 24.1 µM

Incoming: Endpoint output: TGI of Cc1ccc2c(C)c3ccc4ccccc4c3c[n+]2c1 . Value?
Outgoing: 17.3 µM

Incoming: Which TGI is listed for O=C1NC2C=CN(Cc3ccccc3)C=C2C(=O)N2CCCC12 (configuration not stated) ?
Outgoing: > 100 µM

Incoming: Reported TGI for N#Cc1cc([N+](=O)[O-])ccc1NC(=O)/C(=N/N)C(C(=O)c1ccc(Cl)c(Cl)c1)C1OC(=O)c2ccccc21 (configuration not stated) : what is it?
Outgoing: > 100 µM

Incoming: Which TGI is reported for this compound? C=CCNC(=O)NCCCC(NC(C)=O)C(=O)NCc1ccccc1 (configuration not stated)
Outgoing: > 100 µM

Incoming: Please give the measured TGI for this compound: O=C(Nc1nc(=S)c2c(ncn2CCO)[nH]1)c1ccccc1
Outgoing: > 100 µM

Incoming: Could you share which TGI value was measured for OCC1OC(n2cnc3c(=S)nc[nH]c32)C(O)C1O (configuration not stated) ?
Outgoing: > 2500 µM

###

Tested on: A549 NSCLC
Assay Remarks: NCI tumour cell line growth inhibition, 48 h; in the data active = GI50 below about 0.43 µM; inactive = the rest
Classes to choose from: YES for active, NO for inactive

Incoming: Just curious, what result did CCOC(=O)c1nc(Nc2ccc(Cl)cc2)c2ccccc2n1 get here?
Outgoing: NO

Incoming: Recorded test outcome, item CSc1ccccc1C#Cc1ccccc1C#CCCCCO
Outgoing: NO

Incoming: Just curious, what result did O=C(CN1CCN(c2ccccc2)CC1)N1CCN(c2nnc(-c3ccc(Cl)cc3)c(-c3ccc(Cl)cc3)n2)CC1 get here?
Outgoing: NO

Incoming: Hi team, can someone confirm the assay call for CC(=O)O[C@H]1CC[C@@]2(C)[C@@H](CC[C@@H]3[C@@H]2CC[C@]2(C)C=C(C=O)C[C@@H]32)C1 ?
Outgoing: NO

Incoming: Hey, what did the test say about C/C=C/C=C/CCCCCCCCCCCCCC1(OC)C=CC(CC(=O)OC)OO1 (configuration not stated) ?
Outgoing: NO

Incoming: GET /call?item= C=C1CCC2C3(C)COC(c4ccccc4Br)OC3CCC2(C)C1C/C=C1/C(=O)OCC1OC(C)=O (configuration not stated) returns the recorded outcome of this test.
Outgoing: NO

Incoming: Hi, sorry to bother you, what did the test record for CC(C)N1C(NNC(=O)c2cnccn2)=NS(=O)(=O)c2ccccc21 ?
Outgoing: NO

Incoming: Which outcome was assigned to FC(F)(F)c1ccc(-c2cnc(Cl)nc2NCc2cc(C(F)(F)F)cc(C(F)(F)F)c2)cc1 in this test?
Outgoing: NO

Incoming: Fill in: this test's call for CCCOC(=O)CCn1c(SC)nc2[nH]cc(-c3ccccc3)c2c1=O is ___
Outgoing: NO

Incoming: Could you check what this test reported for COc1cc(C2C3=C(COC3=O)Nc3cc4c(cc32)CCC4)cc2c1OCO2 (configuration not stated) ?
Outgoing: YES

Incoming: Please share the test call associated with O=C(N/N=C/c1cc([N+](=O)[O-])ccc1O)c1cccc2ccccc12 .
Outgoing: NO

Incoming: Could you please tell me the result logged for COC(=O)C1=C(OC(=O)c2ccc(Cl)cc2)C(C(=O)OC)[C@@]2(O)[C@@H](C(=O)OC)C(c3ccccc3Cl)C[C@@H]1[C@@H]2C(=O)OC (some centres not stated) in this assay?
Outgoing: NO

Incoming: Answer briefly: the call reported for CCOc1ccccc1/C=N\N=C(\N)N/N=C/c1ccccc1OCC in this assay.
Outgoing: NO

Incoming: Can you look up the reported call for Cc1[nH]c2ccccc2c1CCNCc1ccc(/C=C/C(=O)NO)cc1 for me?
Outgoing: YES

Incoming: What call does the record list for C[C@]12CCc3sc(Nc4ccc(O)cc4)nc3C1=CC[C@@H]1[C@@H]2CC[C@]2(C)C(=O)CC[C@@H]12 ?
Outgoing: NO

Incoming: Tell me the recorded outcome of this test for CCCCNC(=O)NS(=O)(=O)c1ccc(N2N=C(c3cc(C)ccc3C)CC2c2cc(OC)c(OC)c(OC)c2)cc1 (configuration not stated) .
Outgoing: NO

Incoming: Name the outcome recorded for CCCCN(CCCC)c1ccc(C(=NC(C)CCCN(CC)CC)c2ccc(N(C)C)cc2)cc1 (configuration not stated) in the assay.
Outgoing: NO

The reported numbers originate from PubChem BioAssay (NCI).
